Test: in vivo
Settings: mouse, iv
Answer each item with its documented LD50.
Numbers only, in mg/kg.

• CC[C@]1(O)Cc2c(O)c3c(c(O)c2[C@@H](O[C@H]2C[C@H](N4CCOCC4)[C@H](O)[C@H](C)O2)C1)C(=O)c1c(O)cccc1C3=O [M-R20X] = 12.3

Next molecule, please.
Noted for CC[C@@]1(O)C[C@H](O[C@H]2C[C@H](N3CCOCC3)[C@H](O)[C@H](C)O2)c2c(O)c3c(c(O)c2C1O)C(=O)c1cccc(O)c1C3=O (some centres unmarked) : its LD50 reads 3.55

The measurements presented in this section are drawn from patent US4833241A.
